For each of the binders below, state its ELISA absorbance at 450 nm.
Target: T1, recombinant human DLL4 (Cat# 1506-D4/CF, R&D Systems) (human, UniProt Q9NR61 27-529)
T1 construct: Bought protein; also called hDLL4; rHuman DLL4
Assay: ELISA, DLL4 coated, Fab 50 nM
Give bare numbers, in A450.

Use these answered entries as a reference point.
Fab VH1-46_IGHD6-6*01_IGHJ1*01 S102A/S103P/S104F/H111F & L6_IGKJ1*01 S28N/S30D/S31H (Fab, V domains shown, Fab made in E. coli: VH on CH1 with His6 and Flag tags (Plasmid A), VL on kappa CL (Plasmid C); also called H: APFF & L: NDH) VH: QVQLVQSGAEVKKPGASVKVSCKASGYTFTSYYMHWVRQAPGQGLEWMGIINPSGGSTSYAQKFQGRVTMTRDTSTSTVYMELSSLRSEDTAVYYCAREEYAPFSAEYFQFWGQGTLVTVSS VL: EIVLTQSPATLSLSPGERATLSCRASQNVDHYLAWYQQKPGQAPRLLIYDASNRATGIPARFSGSGSGTDFTLTISSLEPEDFAVYYCQQRSNWPPWTFGQGTKVEIKR
0.507
Fab VH1-46_IGHD6-6*01_IGHJ1*01 S102A/S103P/S104F/H111F & L6_IGKJ1*01 S28N/S30D/S31H A55S (Fab, V domains shown, Fab made in E. coli: VH on CH1 with His6 and Flag tags (Plasmid A), VL on kappa CL (Plasmid C); also called H: APFF & L: NDH A55S) VH: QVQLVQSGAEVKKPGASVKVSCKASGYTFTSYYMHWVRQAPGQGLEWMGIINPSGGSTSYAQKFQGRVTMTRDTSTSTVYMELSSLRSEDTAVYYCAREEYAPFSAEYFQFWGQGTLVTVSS VL: EIVLTQSPATLSLSPGERATLSCRASQNVDHYLAWYQQKPGQAPRLLIYDASNRSTGIPARFSGSGSGTDFTLTISSLEPEDFAVYYCQQRSNWPPWTFGQGTKVEIKR
0.588

For every item below, please supply its ELISA absorbance at 450 nm.
1. Fab VH1-46_IGHD6-6*01_IGHJ1*01 S102A/S103P/S104F/H111F & L6_IGKJ1*01 S28N/S30D/S31H N53H (Fab, V domains shown, Fab made in E. coli: VH on CH1 with His6 and Flag tags (Plasmid A), VL on kappa CL (Plasmid C); also called H: APFF & L: NDH N53H) VH: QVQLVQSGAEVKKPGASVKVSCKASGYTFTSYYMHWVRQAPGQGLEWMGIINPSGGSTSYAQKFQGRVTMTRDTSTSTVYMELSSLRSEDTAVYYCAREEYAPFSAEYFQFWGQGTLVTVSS VL: EIVLTQSPATLSLSPGERATLSCRASQNVDHYLAWYQQKPGQAPRLLIYDASHRATGIPARFSGSGSGTDFTLTISSLEPEDFAVYYCQQRSNWPPWTFGQGTKVEIKR
2. Fab VH1-46_IGHD6-6*01_IGHJ1*01 S102A/S103P/S104F/H111F & L6_IGKJ1*01 S28N/S30D/S31H S52L (Fab, V domains shown, Fab made in E. coli: VH on CH1 with His6 and Flag tags (Plasmid A), VL on kappa CL (Plasmid C); also called H: APFF & L: NDH S52L) VH: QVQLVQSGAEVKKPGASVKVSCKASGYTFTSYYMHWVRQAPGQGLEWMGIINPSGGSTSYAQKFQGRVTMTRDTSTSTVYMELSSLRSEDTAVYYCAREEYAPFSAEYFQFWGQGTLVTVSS VL: EIVLTQSPATLSLSPGERATLSCRASQNVDHYLAWYQQKPGQAPRLLIYDALNRATGIPARFSGSGSGTDFTLTISSLEPEDFAVYYCQQRSNWPPWTFGQGTKVEIKR
3. Fab VH1-46_IGHD6-6*01_IGHJ1*01 S102A/S103P/S104F/H111F & L6_IGKJ1*01 S28N/S30D/S31H A55G (Fab, V domains shown, Fab made in E. coli: VH on CH1 with His6 and Flag tags (Plasmid A), VL on kappa CL (Plasmid C); also called H: APFF & L: NDH A55G) VH: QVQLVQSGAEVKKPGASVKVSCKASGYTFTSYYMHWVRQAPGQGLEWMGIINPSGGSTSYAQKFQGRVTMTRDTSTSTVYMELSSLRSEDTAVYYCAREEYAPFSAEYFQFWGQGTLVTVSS VL: EIVLTQSPATLSLSPGERATLSCRASQNVDHYLAWYQQKPGQAPRLLIYDASNRGTGIPARFSGSGSGTDFTLTISSLEPEDFAVYYCQQRSNWPPWTFGQGTKVEIKR

Response:
[0.416, 0.546, 0.51]

Request: Given the binder Fab VH1-46_IGHD6-6*01_IGHJ1*01 S102A/S103P/S104F/H111F & L6_IGKJ1*01 S28N/S30D/S31H S52T (Fab, V domains shown, Fab made in E. coli: VH on CH1 with His6 and Flag tags (Plasmid A), VL on kappa CL (Plasmid C); also called H: APFF & L: NDH S52T) VH: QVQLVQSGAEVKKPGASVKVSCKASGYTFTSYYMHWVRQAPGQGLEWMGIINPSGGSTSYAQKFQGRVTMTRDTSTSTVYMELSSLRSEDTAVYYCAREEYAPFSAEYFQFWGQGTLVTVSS VL: EIVLTQSPATLSLSPGERATLSCRASQNVDHYLAWYQQKPGQAPRLLIYDATNRATGIPARFSGSGSGTDFTLTISSLEPEDFAVYYCQQRSNWPPWTFGQGTKVEIKR , write its reported ELISA absorbance at 450 nm.
Response: 0.49

Hey, just so you know, these numbers are from patent US20110318339A1.
